Taken from patent US8558011B2.

targetOrTestSystem: canine TRPM8 (Canis lupus familiaris, UniProt Q1A7N1)
Construct: expressed in transfected cells
Sequence (Q1A7N1 1-1104): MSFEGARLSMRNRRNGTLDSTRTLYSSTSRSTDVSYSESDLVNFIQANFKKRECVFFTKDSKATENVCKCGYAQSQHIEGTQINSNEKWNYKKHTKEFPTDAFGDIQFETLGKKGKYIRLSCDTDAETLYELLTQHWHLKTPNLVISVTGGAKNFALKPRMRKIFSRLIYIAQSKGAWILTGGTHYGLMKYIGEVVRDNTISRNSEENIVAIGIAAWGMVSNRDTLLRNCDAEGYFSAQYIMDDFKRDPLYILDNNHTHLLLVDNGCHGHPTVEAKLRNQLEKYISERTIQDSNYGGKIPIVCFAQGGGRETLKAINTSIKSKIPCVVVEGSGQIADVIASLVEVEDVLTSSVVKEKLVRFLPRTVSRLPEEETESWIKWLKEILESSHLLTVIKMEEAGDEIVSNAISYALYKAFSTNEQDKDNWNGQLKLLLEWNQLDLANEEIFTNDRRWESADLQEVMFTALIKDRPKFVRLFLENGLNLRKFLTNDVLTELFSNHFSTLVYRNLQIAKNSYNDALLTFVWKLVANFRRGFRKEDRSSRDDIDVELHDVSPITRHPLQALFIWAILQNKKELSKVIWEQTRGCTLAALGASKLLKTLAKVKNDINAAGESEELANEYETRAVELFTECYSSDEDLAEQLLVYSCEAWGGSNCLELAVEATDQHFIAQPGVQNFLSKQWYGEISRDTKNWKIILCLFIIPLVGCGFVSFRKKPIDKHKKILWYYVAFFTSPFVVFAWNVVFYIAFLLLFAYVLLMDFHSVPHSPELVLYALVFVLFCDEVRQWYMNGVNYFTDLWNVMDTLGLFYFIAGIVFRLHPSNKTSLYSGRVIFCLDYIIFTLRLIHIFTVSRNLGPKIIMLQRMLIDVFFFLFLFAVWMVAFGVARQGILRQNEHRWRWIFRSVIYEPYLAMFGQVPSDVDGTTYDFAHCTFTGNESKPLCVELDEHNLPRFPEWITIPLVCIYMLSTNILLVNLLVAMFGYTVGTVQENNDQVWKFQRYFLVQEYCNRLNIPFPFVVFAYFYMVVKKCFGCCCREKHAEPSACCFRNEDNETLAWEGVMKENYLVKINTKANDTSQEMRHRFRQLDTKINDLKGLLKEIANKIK
experimentNotes: In Vitro Canine TRPM8 Functional Assay (Ca2+-sensitive fluorescent dye, icilin activation, FLIPR/FDSS)
Assay type: cell-based
conditions: compound at 0.5 μM; HEK293 cells stably expressing canine TRPM8, icilin activation
assayMetric: % I (0.5 μM) (%)
Numbers only; they are read as %.

Known results for compounds:
compound	targetOrTestSystem	% I (0.5 μM) / %
CCOP(=O)(OCC)C(Cc1ccc(Cl)c(C(F)(F)F)c1)c1sc2ccccc2c1Cl (stereo not shown) [Cpd 287]	canine TRPM8 (Canis lupus familiaris, UniProt Q1A7N1)	103
CC(C)OP(=O)(OC(C)C)C(Cc1cc(C(F)(F)F)cc(C(F)(F)F)c1)c1sc2ccccc2c1Cl (stereo not shown) [Cpd 171]	canine TRPM8 (Canis lupus familiaris, UniProt Q1A7N1)	95
CCOP(=O)(OCC)C(Cc1c(F)c(F)c(O)c(F)c1F)c1sc2ccccc2c1Br (stereo not shown) [Cpd 228]	canine TRPM8 (Canis lupus familiaris, UniProt Q1A7N1)	94

Now let's try a different one.
Req: Assign % I (0.5 μM) to the following record: CCOP(=O)(OCC)C(Cc1ccc(C(F)(F)F)cc1)c1sc2ccccc2c1Br (stereo not shown) [Cpd 154]
Resp: 103

----------
The following compounds are shown together with reported IC50 values.
targetOrTestSystem: canine TRPM8 (Canis lupus familiaris)
Construct: expressed in transfected cells
experimentNotes: In Vitro Canine TRPM8 Functional Assay (Ca2+-sensitive fluorescent dye, icilin activation, FLIPR/FDSS)
Format: cell-based
conditions: HEK293 cells stably expressing canine TRPM8, icilin activation; eight-point dose-response
Numbers only; they are read as nM.

Known results for compounds:
compound	assayMetric	reading
COc1ccc(CC(c2sc3ccccc3c2Br)P(=O)(OC(C)C)OC(C)C)cc1F (stereo not shown)	IC50	36
CCOP(=O)(OCC)C(Cc1ccc(OC)c(C(F)(F)F)c1)c1sc2ccccc2c1Cl (stereo not shown)	IC50	216
CC(C)OP(=O)(OC(C)C)C(Cc1cccc(C(F)(F)F)c1)c1sc2ccccc2c1Cl (stereo not shown)	IC50	73

Now let's try a different one.
Req: Assign IC50 to the following record: CC(C)CCOP(=O)(OCCC(C)C)C(Cc1ccc(F)c(F)c1)c1sc2ccccc2c1Br (stereo not shown)
Resp: 95

----------
targetOrTestSystem: canine TRPM8 (Canis lupus familiaris)
Construct: expressed in transfected cells
experimentNotes: In Vitro Canine TRPM8 Functional Assay (Ca2+-sensitive fluorescent dye, icilin activation, FLIPR/FDSS)
Assay type: cell-based
conditions: compound at 1 μM; HEK293 cells stably expressing canine TRPM8, icilin activation
assayMetric: % I (1 μM) (%)
Numbers only; they are read as %.

Known results for compounds:
compound	readoutUnits	% I (1 μM)
CCOP(=O)(OCC)C(Cc1ccc(Cl)c(Cl)c1)c1sc2ccccc2c1Br (stereo not drawn)	%	100
CCOP(=O)(OCC)C(Cc1cccc(Cl)c1Cl)c1sc2ccccc2c1C (racemic)	%	100
CCOP(=O)(OCC)C(Cc1ccc(F)c(F)c1)c1sc2cccc(F)c2c1C (stereo not drawn)	%	100
CC(C)OP(=O)(OC(C)C)C(Cc1ccc(F)c(F)c1)c1oc2cccc(F)c2c1Br (stereo not drawn)	%	101
CCOP(=O)(OCC)C(Cc1ccc(F)c(F)c1)c1sc2ccc(F)cc2c1C (stereo not drawn)	%	100

Req: Assign % I (1 μM) to the following record: CCOP(=O)(OCC)C(Cc1ccccc1Cl)c1sc2ccccc2c1C (racemic)
Resp: 100

Req: Assign % I (1 μM) to the following record: CCOP(=O)(OCC)C(Cc1ccc(F)c(F)c1)c1oc2cccc(F)c2c1Br (stereo not drawn)
Resp: 100

Req: Assign % I (1 μM) to the following record: CCOP(=O)(OCC)C(Cc1cc(F)cc(F)c1Cl)c1sc2ccccc2c1C (racemic)
Resp: 100

Req: Assign % I (1 μM) to the following record: CCOP(=O)(OCC)C(Cc1ccc(F)c(F)c1)c1oc2ccccc2c1C (stereo not drawn)
Resp: 100

Req: Assign % I (1 μM) to the following record: CCOP(=O)(OCC)C(Cc1cccc(F)c1F)c1sc2ccccc2c1C (racemic)
Resp: 100

Req: Assign % I (1 μM) to the following record: CCOP(=O)(OCC)C(C)(Cc1ccc(F)c(F)c1)c1sc2ccccc2c1C (stereo not drawn)
Resp: 88

Req: Assign % I (1 μM) to the following record: CCOP(=O)(Cc1cc2ccccc2s1)OCc1c(Cl)cccc1Cl (stereo not drawn)
Resp: 79

Req: Assign % I (1 μM) to the following record: CCOP(=O)(OCC)C(Cc1ccc(F)cc1Cl)c1sc2ccccc2c1C (racemic)
Resp: 99

Req: Assign % I (1 μM) to the following record: CCOP(=O)(OCC)C(Cc1cccc(C(F)(F)F)c1)c1cc2ccccc2s1 (racemic)
Resp: 100

Req: Assign % I (1 μM) to the following record: CC(C)OP(=O)(OC(C)C)C(Cc1cccc(Cl)c1)c1sc2ccccc2c1Br (stereo not drawn)
Resp: 103

Req: Assign % I (1 μM) to the following record: CCOP(=O)(OCC)C(Cc1ccccc1C)c1sc2ccccc2c1C (racemic)
Resp: 100

Req: Assign % I (1 μM) to the following record: CCOP(=O)(OCC)C(Cc1ccc(F)c(F)c1)c1sc2cccc(Cl)c2c1C (stereo not drawn)
Resp: 100

Req: Assign % I (1 μM) to the following record: CC(C)OP(=O)(OC(C)C)C(Cc1ccc(F)c(F)c1)c1sc2ccccc2c1Cl (stereo not drawn)
Resp: 100
